- System: HCC 2998
- test_method_notes: NCI tumour cell line growth inhibition, 48 h
Calls of active or inactive are those of the source. No stated cut-off is given here; in the data, active = GI50 up to about 1.1 µM and inactive = higher.
Outcome codes: true for active, false for inactive

{"structure_string": "N=C(N)NCCNC(=N)N", "cat": "false"}
{"structure_string": "COc1cccc(-c2nc(-c3cnccn3)n(C/C=C/c3ccccc3)n2)c1", "cat": "false"}
{"structure_string": "NNC(=O)CCCCCCCC(=O)O", "cat": "false"}
{"structure_string": "C=CC(C)(C)n1cc(C2=C(O)C(=O)C(c3cn(C(C)(C)C=C)c4ccccc34)=C(OC(C)=O)C2=O)c2ccccc21", "cat": "true"}
{"structure_string": "NC(=O)C#CC#CC#CCO", "cat": "false"}
{"structure_string": "O=c1c2cc([N+](=O)[O-])ccc2oc2nc3n(c(=O)c12)CCCS3", "cat": "false"}
{"structure_string": "O=C(/C=C/c1ccccc1)CSc1nc[nH]n1", "cat": "false"}

---

- Test system: SNB-19
- test_method_notes: NCI tumour cell line growth inhibition, 48 h
Calls of active or inactive are those of the source. Rule as the data show it: active = GI50 up to about 1.1 µM and inactive = higher.
Outcome codes: Y = active, N = inactive

{"compound": "CCc1cccc(C(C)C)c1NC(=O)/C(=N\\NC(N)=O)C(C(=O)OC)c1cnc2ccccc2n1 (configuration not stated)", "target_under_test": "SNB-19", "cat": "N"}
{"compound": "C=CCN(C)CN(C)c1nc(N(C)C)nc(N(C)C)n1", "target_under_test": "SNB-19", "cat": "N"}
{"compound": "CN1NC(c2ccccc2)=C(C#N)C(=O)CC1c1ccccc1Cl (configuration not stated)", "target_under_test": "SNB-19", "cat": "N"}
{"compound": "O=S1(=O)OCCOS(=O)(=O)C1Cc1cccc2ccccc12", "target_under_test": "SNB-19", "cat": "N"}
{"compound": "COc1cc(C2S/C(=C/c3ccccc3)C(=O)N2c2cc(Cl)c(Cl)cc2Cl)cc(OC)c1OC (configuration not stated)", "target_under_test": "SNB-19", "cat": "N"}
{"compound": "CCOC1CN(C)/C(=N\\c2cccc3ccccc23)S1 (configuration not stated)", "target_under_test": "SNB-19", "cat": "N"}
{"compound": "CCN(CC)C(=S)N/N=C(/c1ccccc1)c1ccccn1", "target_under_test": "SNB-19", "cat": "N"}
{"compound": "COc1cc2c(c(OC)c1OC)CCNC2C1=C(O)COC1=O (configuration not stated)", "target_under_test": "SNB-19", "cat": "N"}
{"compound": "Cc1cc2sc(C)[n+](CCCOS(=O)(=O)[O-])c2cc1C", "target_under_test": "SNB-19", "cat": "N"}
{"compound": "CCCCCCCCCC1CC(=O)OC2=C1C(=O)CCC2 (configuration not stated)", "target_under_test": "SNB-19", "cat": "N"}
{"compound": "Cc1nc2ccc(Cl)cc2c2c1CCS2", "target_under_test": "SNB-19", "cat": "N"}
{"compound": "N/C(S)=N/N=C/c1ncccc1O", "target_under_test": "SNB-19", "cat": "N"}
{"compound": "C#CCNC(CCCNC(=N)N)C(=O)O (configuration not stated)", "target_under_test": "SNB-19", "cat": "N"}
{"compound": "CNc1ccc([N+](=O)[O-])c2c(NCCCN(C)C)ccnc12", "target_under_test": "SNB-19", "cat": "N"}
{"compound": "O=CN/C=C/c1ccc(O)c(O)c1", "target_under_test": "SNB-19", "cat": "N"}
{"compound": "CN1C(c2ccccc2)=CC(=O)C(O)=C(c2ccccc2)S1(=O)=O", "target_under_test": "SNB-19", "cat": "N"}
{"compound": "CCCCC(=O)OC[n+]1ccc2c(C)c3[nH]c4ccc(OC)cc4c3c(C)c2c1", "target_under_test": "SNB-19", "cat": "Y"}
{"compound": "O=C1c2ccccc2C(=O)N1C/C=N/NS(=O)(=O)c1ccc(Br)cc1", "target_under_test": "SNB-19", "cat": "N"}
{"compound": "COc1cccc(NC(=O)CC(=O)NN)c1", "target_under_test": "SNB-19", "cat": "N"}
{"compound": "CCCC1(CCC)c2cc(/C=N\\O)ccc2-c2ccc(-c3ccc(C(C)(C)C)cc3)cc21", "target_under_test": "SNB-19", "cat": "N"}
{"compound": "CC1(C)OC[C@H](C(=N)OCc2ccccc2)O1", "target_under_test": "SNB-19", "cat": "N"}
{"compound": "O=[N+]([O-])c1ccc(-c2noc(-c3ccc(Cl)cc3)c2C2=NCCN2)cc1", "target_under_test": "SNB-19", "cat": "N"}
{"compound": "O=C1/C(=N\\O)C2CCC1C2 (configuration not stated)", "target_under_test": "SNB-19", "cat": "N"}
{"compound": "O=C(O)CN(CC(=O)O)Cc1cc2c(cc1O)Oc1cc(O)c(CN(CC(=O)O)CC(=O)O)cc1C21OC(=O)c2ccccc21", "target_under_test": "SNB-19", "cat": "N"}
{"compound": "Cn1c(=O)c2c(ncn2CCCCOc2ccc3c(c2)[n+]([O-])nc(N)[n+]3[O-])n(C)c1=O", "target_under_test": "SNB-19", "cat": "N"}
{"compound": "O=C(N/N=C/c1ccco1)c1cc(I)cc(I)c1O", "target_under_test": "SNB-19", "cat": "N"}
{"compound": "C=C(C)[C@H]1C=C[C@@H](OC(=O)c2cccnc2)[C@@]23CO[C@@](C)([C@H](OC(=O)c4cccnc4)[C@@]4(OC(C)=O)C[C@H](C)[C@H](OCCC)[C@@H]4[C@H]2OC(C)=O)[C@H]13", "target_under_test": "SNB-19", "cat": "N"}
{"compound": "CC1(C)OCC2OC(n3cnc4c(N)nc(Cl)nc43)C(OS(C)(=O)=O)C2O1 (configuration not stated)", "target_under_test": "SNB-19", "cat": "N"}
{"compound": "O=C1C=CC=C/C1=C1\\N=C(c2ccccc2OCC(=O)c2ccccc2)SS1", "target_under_test": "SNB-19", "cat": "N"}
{"compound": "Fc1cccc(C2SCc3nc4ccccc4n32)c1 (configuration not stated)", "target_under_test": "SNB-19", "cat": "N"}
{"compound": "O=C(O)CC1CC=C[C@H]2c3cc4c(cc3C(=O)NC12)OCO4 (some centres not stated)", "target_under_test": "SNB-19", "cat": "N"}
{"compound": "COc1cccc(-c2nc(-c3cnccn3)n(C/C=C/c3ccccc3)n2)c1", "target_under_test": "SNB-19", "cat": "N"}

---

# GI50 values compiled below
- System: COLO 205
- test_method_notes: NCI tumour cell line growth inhibition, 48 h
Calls of active or inactive are those of the source. No stated cut-off is given here; in the data, active = GI50 up to about 1.1 µM and inactive = higher.
readout: GI50

{"structure_string": "C=CCn1c2ccccc2[n+]2cc([N+](=O)[O-])ccc12", "target_under_test": "COLO 205", "value_observed": "12.3 µM (inactive)"}
{"structure_string": "N#C/C=C(/NC(=O)Nc1ccccc1)N1CCCC1", "target_under_test": "COLO 205", "value_observed": "> 55 µM (inactive)"}
{"structure_string": "CC1(C)OC[C@H](C(=N)OCc2ccccc2)O1", "target_under_test": "COLO 205", "value_observed": "> 100 µM (inactive)"}

---

- Test system: NCI-H226
- test_method_notes: NCI tumour cell line growth inhibition, 48 h
The source made the active and inactive calls. No stated cut-off is given here; in the data, active = GI50 up to about 1.1 µM and inactive = higher.
readout: GI50

{"molecule": "COc1cc(O)c(C(=O)/C=C/c2ccc(OC)c(OCc3ccccc3)c2)c(OC)c1", "target_under_test": "NCI-H226", "value_observed": "> 100 µM (inactive)"}
{"molecule": "Cc1[nH]c(-c2ccccc2)c2nc(N(C)C)oc(=O)c12", "target_under_test": "NCI-H226", "value_observed": "> 100 µM (inactive)"}
{"molecule": "CC1(C)OC[C@H](C(=N)OCc2ccccc2)O1", "target_under_test": "NCI-H226", "value_observed": "19.3 µM (inactive)"}
{"molecule": "CCC(NC(C)c1ccccc1)C(=O)c1ccc(OCc2ccccc2)c(OCc2ccccc2)c1 (centres undefined)", "target_under_test": "NCI-H226", "value_observed": "> 100 µM (inactive)"}
{"molecule": "COc1cccc(NC(=O)CC(=O)NN)c1", "target_under_test": "NCI-H226", "value_observed": "> 100 µM (inactive)"}
{"molecule": "COC(=O)C1=C(C(=O)OC)SC(=C2SC3=C(SC(=C4SCCS4)S3)S2)S1", "target_under_test": "NCI-H226", "value_observed": "> 100 µM (inactive)"}
{"molecule": "CC(=O)OC/C=C(\\C)CCC(Br)C(C)(C)Br (centres undefined)", "target_under_test": "NCI-H226", "value_observed": "> 10 µM (inactive)"}
{"molecule": "CCN(CC)CCCNc1ccc2nc(C)n3c4ccc(O)cc4c(=O)c1c23", "target_under_test": "NCI-H226", "value_observed": "6.46 µM (inactive)"}
{"molecule": "CN1C(=O)C(C#N)C2C[C@@]1(C)Oc1ccccc12 (some centres undefined)", "target_under_test": "NCI-H226", "value_observed": "> 100 µM (inactive)"}
{"molecule": "CCOC1(OCC)N=C(N)C2(C#N)C3(C(=O)N(C(C)C)N=C3C)C12C#N (centres undefined)", "target_under_test": "NCI-H226", "value_observed": "> 100 µM (inactive)"}
{"molecule": "Cc1ccc(/N=C/c2ccc3c(c2)OCO3)cc1C", "target_under_test": "NCI-H226", "value_observed": "> 100 µM (inactive)"}
{"molecule": "CCN1C/C(=C\\c2ccc(Cl)cc2)c2nc(N)c(C#N)c(-c3ccc(Cl)cc3)c2C1", "target_under_test": "NCI-H226", "value_observed": "> 100 µM (inactive)"}
{"molecule": "CC(=O)c1ccc2c(c1)oc(=O)n2CCN1CCCCC1", "target_under_test": "NCI-H226", "value_observed": "> 100 µM (inactive)"}
{"molecule": "NC(=O)c1cc2ccccc2o/c1=N/c1ccccc1", "target_under_test": "NCI-H226", "value_observed": "> 100 µM (inactive)"}
